# System: C4-2B cells
# MEASUREMENT_PROTOCOL: MTT cell proliferation assay, 7 d, C4-2B
# Type: cell-based
# ASSAY_CONTEXT: Homo sapiens, 168 h, 7 d treatment
# strict inequality: GI50 < 2 µM yields 1 (yes), everything else yields 0 (no)

{"columns": ["COMPOUND", "CLASS"],
 "data": [
  ["CNC(=O)c1ccc(N2C(=S)N(c3ccc(C#N)c(C(F)(F)F)c3)C(=O)C2(C)C)cc1F [MDV3100, Enzalutamide, reference compound]", "1 (yes)"],
  ["CC1=C(/C=C/C(C)=C/C=C/C(C)=C/C(=O)Nc2ccccc2O)C(C)(C)CCC1n1ccnc1 (stereo not shown) [VNLG-147]", "0 (no)"],
  ["CC(=O)O[C@H]1CC[C@@]2(C)C(=CC[C@@H]3[C@@H]2CC[C@]2(C)C(c4cccnc4)=CC[C@@H]32)C1 [AA, Abiraterone acetate, reference compound]", "1 (yes)"],
  ["CC1=C(/C=C/C(C)=C/C=C/C(C)=C/C(=O)Nc2ncnc3[nH]cnc23)C(C)(C)CCC1n1ccnc1 (stereo not shown) [VNLG-148]", "0 (no)"],
  ["CC1=C(/C=C/C(C)=C/C=C/C(C)=C/C(=O)NC(C)(C)C)C(C)(C)CCC1n1ccnc1 (stereo not shown) [VNLG-145]", "0 (no)"],
  ["CC1=C(/C=C/C(C)=C/C=C/C(C)=C/C(=O)Nc2ccc(F)cc2)C(C)(C)CCC1n1ccnc1 (racemic) [VNLG-152]", "1 (yes)"]
]}

Now examine the next entry.
Would you kindly verify if GI50 of CC1=C(/C=C/C(C)=C/C=C/C(C)=C/C(=O)Nc2ccc(O)cc2)C(C)(C)CCC1n1ccnc1 (stereo not shown) [VN/66-1] is strictly less than 2 µM?
0 (no)

The reported measurements were obtained from paper PMC4413647.
